# method summary: In vivo biodistribution of 111In-labeled miniproteins by SPECT/CT, HT-1376 xenograft
# Design: species or system mouse
# condition label: female, athymic nude, mouse, in vivo
# Excerpt: HT-1376 is a human cell line that expresses Nectin-4. Humane endpoints: All animals were euthanized following the final imaging time point and carcasses were discarded according to IACUC protocols. Image Processing: Images were generated as SPECT/CT pairs with the SPECT reported in units of activity. […]
Bridges are numbered along the chain shown (N, C = ends). [ ]: non-standard residue; d: D form. The star is where a group is joined. DOTA = O=C(O)CN1CCN(CC(=O)O)CCN(CC(=O)*)CCN(CC(=O)O)CC1; Lys(Me3) = C[N+](C)(C)CCCC[C@H](N)C(=O)O; Cit = NC(=O)NCCC[C@H](N)C(=O)O; PEG4 = NCCOCCOCCOCCOCCC(=O)O
reported endpoint: tissue uptake at 24 h
Quote the value and follow it with the unit of measurement.

Worked set:
{DOTA-PEG4}-CEYDEEFFTALSRLRGGDICYYIQQAFQYLPGLCIEEILDNLGCS-OH (disulfide 1-34, 20-44) [Compound C133]; 20.9 %ID/g
{DOTA-PEG4}-CDYDEQFFTALA[Cit]LRGGDICEYIQA[Lys(Me3)]FQYLPGLCIEEILDNLGCS-OH (disulfide 1-34, 20-44 (inferred)) [Compound C260]; 7.36 %ID/g
{DOTA-PEG4}-CEYDEQFFTALSSLRGGDICYYIQEQFANVPGICIEEILDNLGCS-OH (disulfide 1-34, 20-44) [Compound C137]; 42.9 %ID/g
{DOTA-PEG4}-CEYDEEFFTALARLRGGDICQYIQAKFQYLPGQCIEEILDNLGCS-OH (disulfide 1-34, 20-44) [Compound C244]; 15.9 %ID/g
{DOTA-PEG4}-CEYDEEFFTALKRLRGGDICYYIQKAFQYLPGLCIEEILDNLGCS-OH (disulfide 1-34, 20-44) [Compound C121]; 60.4 %ID/g
{DOTA-PEG4}-CEYDEQFFTALARLRGGDICYYIQEQFATVPGLCIEEILDQLGCS-OH (disulfide 1-34, 20-44) [Compound C129]; 19.9 %ID/g
{DOTA-PEG4}-CEYDEEFFTALKRLRGGDICYYIQAKFQYLPKLCIEEILDNLGCS-OH (disulfide 1-34, 20-44 (inferred)) [Compound C117]; 93.3 %ID/g
{DOTA-PEG4}-CEYDEEFFTALARLRGDDICSYIQAKFQYLPGLCIEEILDNLGCS-OH (disulfide 1-34, 20-44 (inferred)) [Compound C293]; 32.6 %ID/g

In the following, a different substance is considered.
Per the records, this substance ( {DOTA-PEG4}-CEYDEQFFTALKRLRGADICSYIQASFQYLPGLCIEEILDNLGCS-OH (disulfide 1-34, 20-44) [Compound C250] ) has tissue uptake at 24 h equal to 34.9 %ID/g

* * *

# method summary: In vivo biodistribution of 111In-labeled miniproteins by SPECT/CT, HT-1376 xenograft
# Parameters: species or system mouse
# condition label: female, athymic nude, mouse, in vivo; 111In-labeled miniprotein, SPECT/CT, kidneys, 4 h post-dosing, n=3 mice; read-out: Biodistribution, Kidneys, 4 h (% ID/g) Average
Bridges are numbered along the chain shown (N, C = ends). The star is where a group is joined. DOTA = O=C(O)CN1CCN(CC(=O)O)CCN(CC(=O)*)CCN(CC(=O)O)CC1; PEG4 = NCCOCCOCCOCCOCCC(=O)O
reported endpoint: tissue uptake at 4 h

Briefly, tissue uptake at 4 h measured for {DOTA-PEG4}-CEYDEQFFTALKALRGGDICYYIQASFNYLPDLCIEEILDNLGCS-OH (disulfide 1-34, 20-44 (inferred)) [Compound C113] : 87.9 %ID/g
